I'd be grateful if you could share measured Ratio IC50 for these entries.
# Species: Homo sapiens
# ASSAY: Selectivity ratio of IC50 for human acid ceramidase to IC50 for recombinant human NAAA
Would you mind answering with just the numeric figure?

For this molecule ( `O=C(N[C@H]1CNC1=O)OCc1ccc(C2CCCCC2)cc1` ), measured Ratio IC50 is 125

For this molecule ( `O=C(N[C@H]1CNC1=O)OCc1ccc2c(c1)OC(F)(F)O2` ), measured Ratio IC50 is 365

For this molecule ( `O=C(N[C@H]1CNC1=O)OCCCCC1CCC(F)(F)CC1` ), measured Ratio IC50 is 140

For this molecule ( `CCCCc1ccc(COC(=O)N[C@H]2CNC2=O)cc1` ), measured Ratio IC50 is 55
